# System: CT-DNA-EB adduct
# measurement.protocol: Fluorescence competitive displacement of ethidium bromide from CT-DNA
# Type: binding, calf
# test.context: Stern–Volmer quenching constant, EB displacement, 25 °C
The following compounds are listed with their measured CT-DNA-EB-Complex Ksv (M^−1) × 10^4 values.

compound | CT-DNA-EB-Complex Ksv (M^−1) × 10^4
Clc1ccc(N=Cc2ccc3ccccc3n2)cc1.Clc1ccc(N=Cc2ccc3ccccc3n2)cc1.[Ag+].[O-][Cl+3]([O-])([O-])[O-] [Complex Q8, [Ag(L3)2]ClO4] | 3.98 (M^−1) × 10^4
O=S(=O)([O-])C(F)(F)F.[Ag+].c1ccc2nc(-c3nc4ccccc4s3)ccc2c1.c1ccc2nc(-c3nc4ccccc4s3)ccc2c1 [Complex Q12, [Ag(L2)2]CF3SO3] | 3.14 (M^−1) × 10^4
Cc1ccc(N=Cc2ccc3ccccc3n2)cc1.Cc1ccc(N=Cc2ccc3ccccc3n2)cc1.O=[N+]([O-])[O-].[Ag+] [Complex Q4, [Ag(L4)2]NO3] | 3.50 (M^−1) × 10^4

* * *

# Test system: Staphylococcus aureus ATCC 700699 (methicillin-resistant)
# measurement.protocol: Minimum inhibitory concentration (MIC), spotting on Müeller–Hinton agar
# Format: cell-based
# test.context: Gram + Ve; methicillin-resistant S. aureus; 37 °C, 18 h
test.readout: Minimum inhibitory concentration, MRSA (µg/mL)

compound | test.readout | assay.result
C(=NCc1cccs1)c1ccc2ccccc2n1.C(=NCc1cccs1)c1ccc2ccccc2n1.O=S(=O)([O-])C(F)(F)F.[Ag+] [Complex Q15, [Ag(L5)2]CF3SO3] | Minimum inhibitory concentration, MRSA | 100
C(=NCc1cccs1)c1ccc2ccccc2n1.C(=NCc1cccs1)c1ccc2ccccc2n1.O=[N+]([O-])[O-].[Ag+] [Complex Q5, [Ag(L5)2]NO3] | Minimum inhibitory concentration, MRSA | 100
O=[N+]([O-])[O-].[Ag+].c1ccc2nc(-c3nc4ccccc4s3)ccc2c1.c1ccc2nc(-c3nc4ccccc4s3)ccc2c1 [Complex Q2, [Ag(L2)2]NO3] | Minimum inhibitory concentration, MRSA | 50

* * *

# System: Staphylococcus aureus ATCC 700699 (methicillin-resistant)
# measurement.protocol: Minimum inhibitory concentration (MIC), spotting on Müeller–Hinton agar
# Format: cell-based
# test.context: Gram + Ve; methicillin-resistant S. aureus; 37 °C, 18 h
test.readout: Minimum inhibitory concentration, MRSA (µg/mL)

molecule | test.readout | assay.result
Cc1ccc(N=Cc2ccc3ccccc3n2)cc1.Cc1ccc(N=Cc2ccc3ccccc3n2)cc1.O=S(=O)([O-])C(F)(F)F.[Ag+] [Complex Q14, [Ag(L4)2]CF3SO3] | Minimum inhibitory concentration, MRSA | 1000
Cc1ccc(N=Cc2ccc3ccccc3n2)cc1.Cc1ccc(N=Cc2ccc3ccccc3n2)cc1.O=[N+]([O-])[O-].[Ag+] [Complex Q4, [Ag(L4)2]NO3] | Minimum inhibitory concentration, MRSA | 50
O=S(=O)([O-])C(F)(F)F.[Ag+].c1ccc2nc(-c3nc4ccccc4s3)ccc2c1.c1ccc2nc(-c3nc4ccccc4s3)ccc2c1 [Complex Q12, [Ag(L2)2]CF3SO3] | Minimum inhibitory concentration, MRSA | 50
Clc1ccc(N=Cc2ccc3ccccc3n2)cc1.Clc1ccc(N=Cc2ccc3ccccc3n2)cc1.O=[N+]([O-])[O-].[Ag+] [Complex Q3, [Ag(L3)2]NO3] | Minimum inhibitory concentration, MRSA | 50
Clc1ccc(N=Cc2ccc3ccccc3n2)cc1.Clc1ccc(N=Cc2ccc3ccccc3n2)cc1.[Ag+].[O-][Cl+3]([O-])([O-])[O-] [Complex Q8, [Ag(L3)2]ClO4] | Minimum inhibitory concentration, MRSA | 25
O=S(=O)([O-])C(F)(F)F.[Ag+] [AgCF3SO3, silver trifluoromethanesulfonate, reference compound] | Minimum inhibitory concentration, MRSA | 1000

Where do the numbers come from? From paper PMC7956476.
